experiment: Compound was tested for it's ability to inhibit NADH UBQ reductase activity in beef mitochondrial particles; parameters: species or system Bos taurus
quantity: IC50 (µM)

1. Cc1csc2nc(-c3cccs3)cn12 90
2. Cc1cn2cc(-c3cccs3)nc2s1 70
3. Cc1cn2cc(-c3ccsc3)nc2s1 140
4. Cc1csc2nc(-c3ccsc3)cn12 210

----------
species: Bos taurus; assay: Residual NADH:UBQ:DCIP reductase activity in beef mitochondrial particles; design: concentration or dose not given beside the values
Use 40% as the dividing line for residual activity, with the line itself on the T side and lower values as F.

1) Cc1csc2nc(-c3cccs3)cn12 F
2) C=C(C)[C@H]1Cc2c(ccc3c2O[C@@H]2COc4cc(OC)c(OC)cc4[C@@H]2C3=O)O1 F
3) Cn1c(-c2ccccc2)c(/C=C/c2cccs2)[n+]2ccsc12 T
4) c1csc(-c2cn3ccsc3n2)c1 T
5) Cc1cn2cc(-c3cccs3)nc2s1 F

Data origin, for the record: ChEMBL document CHEMBL1128596
